Assignment: determine reported pKi for the given compounds.
Target: human kisspeptin receptor (Homo sapiens (Human), UniProt Q969F8)
Sequence (Q969F8 whole entry): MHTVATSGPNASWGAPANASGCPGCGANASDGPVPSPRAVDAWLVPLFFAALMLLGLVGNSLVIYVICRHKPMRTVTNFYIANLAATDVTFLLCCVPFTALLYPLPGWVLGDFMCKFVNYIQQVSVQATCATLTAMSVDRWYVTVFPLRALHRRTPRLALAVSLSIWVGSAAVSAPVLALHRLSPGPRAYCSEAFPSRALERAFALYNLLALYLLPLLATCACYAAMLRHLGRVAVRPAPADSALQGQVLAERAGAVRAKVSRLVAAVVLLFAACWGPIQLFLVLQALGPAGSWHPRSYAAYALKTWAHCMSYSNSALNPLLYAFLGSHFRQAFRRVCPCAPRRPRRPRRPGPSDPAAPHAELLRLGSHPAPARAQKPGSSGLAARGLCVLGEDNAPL
Experiment: Human KISS1R binding assay (membrane competition binding)
Conditions: 90 min at room temperature; competition with 0.2 nM [125I]-metastin (45-54); Flp-In T-Rex 293 kisspeptin membranes; metal complexes nonradioactive Ga, In, Lu; read-out: hKiSSR Binding Ki (90 min)
pKi: −log10 of the molar value. Square brackets hold non-standard residues; d marks the D form. Peptide text beside a SMILES is read from it. * marks the point of attachment. DOTA = O=C(O)CN1CCN(CC(=O)O)CCN(CC(=O)*)CCN(CC(=O)O)CC1; Gly(N-(3-F-4-Me-benzyl)) = Cc1ccc(CNCC(=O)*)cc1F; Bpa = N[C@@H](Cc1ccc(C(=O)c2ccccc2)cc1)C(=O)O; Api = NC1(C(=O)O)CCNCC1; Ahx = NCCCCCC(=O)O; azaGly = NNC(=O)O; Sar = CNCC(=O)O

Request: Item CNCC(=O)N1CCC(NC(=O)[C@H](CC(C)C)NC(=O)NNC(=O)[C@H](Cc2ccccc2)NC(=O)[C@@H](NC(=O)[C@H](CC(N)=O)NC(=O)[C@H](Cc2ccc(C(=O)c3ccccc3)cc2)NC(=O)[C@@H](Cc2ccc(O)cc2)NC(=O)CCCCCNC(=O)CN2CCN(CC(=O)O)CCN(CC(=O)O)CCN(CC(=O)O)CC2)[C@@H](C)O)(C(=O)N[C@@H](Cc2c[nH]c3ccccc23)C(N)=O)CC1 [Compound 346] ({DOTA-Ahx}-[dY][Bpa]NTF[azaGly]L[Api](Sar)W-NH2) has what recorded pKi?
Response: > 8.00

Request: Item Cc1ccc(CNCC(=O)N2CCC(NC(=O)[C@H](CC(C)C)NC(=O)NNC(=O)[C@H](Cc3ccccc3)NC(=O)CN(C)C(=O)CN(C)C(=O)CN3CCN(CC(=O)O)CCN(CC(=O)O)CCN(CC(=O)O)CC3)(C(=O)N[C@@H](Cc3c[nH]c4ccccc34)C(N)=O)CC2)cc1F [Compound 17] ({DOTA}-[Sar][Sar]F[azaGly]L[Api](Gly(N-(3-F-4-Me-benzyl)))W-NH2) has what recorded pKi?
Response: > 8.00
